Molecular target: T1, human IL-2Rγ expressed on cells (NK-92, Jurkat) (human) (UniProt P31785)
T1 sequence (looked up): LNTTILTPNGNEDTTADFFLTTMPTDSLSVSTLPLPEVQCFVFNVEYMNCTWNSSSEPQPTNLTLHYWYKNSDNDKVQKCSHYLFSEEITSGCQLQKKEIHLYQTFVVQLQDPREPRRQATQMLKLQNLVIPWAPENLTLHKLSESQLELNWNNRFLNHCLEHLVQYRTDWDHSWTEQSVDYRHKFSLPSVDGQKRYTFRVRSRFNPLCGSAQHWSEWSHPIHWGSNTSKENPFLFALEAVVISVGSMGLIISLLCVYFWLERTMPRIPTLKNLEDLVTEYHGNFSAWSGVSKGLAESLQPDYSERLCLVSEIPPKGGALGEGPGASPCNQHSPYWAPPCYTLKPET
Test: flow cytometry on NK-92 cells (endogenous human IL-2Rg), antibody 10 ug/ml
metric: Raw MFI (MFI)
Provide the reading as a plain figure in MFI.

Specify reported Raw MFI for the binder shown: H4H13541P (antibody, human IgG4 S228P, kappa, V domains shown) VH: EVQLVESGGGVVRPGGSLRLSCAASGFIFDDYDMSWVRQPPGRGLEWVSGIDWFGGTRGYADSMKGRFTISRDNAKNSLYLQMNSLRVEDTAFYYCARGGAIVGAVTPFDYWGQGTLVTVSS VL: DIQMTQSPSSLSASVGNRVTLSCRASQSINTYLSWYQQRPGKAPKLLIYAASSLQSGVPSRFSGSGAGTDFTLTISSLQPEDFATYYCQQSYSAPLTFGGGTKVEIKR
7050

Recall and state the measured Raw MFI for H4H12899P (antibody, human IgG4 S228P, kappa, V domains shown) VH: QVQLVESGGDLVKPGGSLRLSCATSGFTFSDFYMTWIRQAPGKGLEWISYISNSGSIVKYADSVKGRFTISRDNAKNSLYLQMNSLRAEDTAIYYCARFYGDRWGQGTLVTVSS VL: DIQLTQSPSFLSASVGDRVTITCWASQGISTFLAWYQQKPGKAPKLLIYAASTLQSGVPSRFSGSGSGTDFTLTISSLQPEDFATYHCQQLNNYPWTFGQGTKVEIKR .
2670

Please indicate Raw MFI recorded for H4H13538P (antibody, human IgG4 S228P, kappa, V domains shown) VH: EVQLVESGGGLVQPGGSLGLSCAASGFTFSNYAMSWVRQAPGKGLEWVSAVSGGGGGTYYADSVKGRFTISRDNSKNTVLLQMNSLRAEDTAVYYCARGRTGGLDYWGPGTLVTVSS VL: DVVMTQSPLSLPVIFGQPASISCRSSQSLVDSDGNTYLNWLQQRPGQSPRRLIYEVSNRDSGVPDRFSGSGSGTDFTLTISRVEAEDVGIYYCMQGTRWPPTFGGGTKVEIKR
235
